# Experiment: Phase I 14-day twice-daily pharmacokinetics
# Run Parameters: human, plasma, oral
Assay Endpoint: half-life

Name the reported half-life value associated with the compound O=S1(=O)c2ccc(F)cc2Oc2cc(OCC(F)(F)F)ccc21
33.3 to 35.3 h

* * *

# Experiment: Plasma and brain CX157 concentrations after oral dosing in rats
# Run Parameters: male, Sprague-Dawley, rat, plasma, po, 10 mg/kg
Assay Endpoint: concentration at 18 h (ng/mL)
// return numeric value only (unit: ng/mL, not printed)

Data request, read-out concentration at 18 h, for O=S1(=O)c2ccc(F)cc2Oc2cc(OCC(F)(F)F)ccc21 [CX157]
8.5

* * *

# Experiment: Plasma and brain CX157 concentrations after oral dosing in rats
# Run Parameters: male, Sprague-Dawley, rat, plasma, po, 5 mg/kg
Assay Endpoint: concentration at 0 h (ng/mL)
Kindly provide the numeric value in ng/mL only, without the unit symbol.

Fill in the blank: the reported concentration at 0 h of O=S1(=O)c2ccc(F)cc2Oc2cc(OCC(F)(F)F)ccc21 is ____.
0
